I'd be grateful if you could share measured MIC for these entries.
# System: Escherichia coli
# measurement_protocol: Antibacterial activity against Escherichia coli DH52 after 18 to 24 hrs by CLSI two fold serial dilution method
# Assay type: functional
Give bare numbers, in µM.

// known answers, use as guide
Inquiry: // lookup MIC for COc1cc(/C=N/Nc2nccs2)c2c(c1OCc1ccc(F)cc1)CN1CCc3cc4c(cc3C1C2)OCO4 (centres undefined)
Reply text: 460

Inquiry: What about this molecule? C=CCOc1c(OC)cc(/C=N/Nc2nccs2)c2c1CN1CCc3cc4c(cc3C1C2)OCO4 (centres undefined)
Reply text: 130

Inquiry: What about this molecule? C#CCOc1c(OC)cc(/C=N/NC(N)=S)c2c1CN1CCc3cc4c(cc3C1C2)OCO4 (centres undefined)
Reply text: 140

Inquiry: What about this molecule? COc1cc(/C=N/NC(N)=S)c2c(c1OCc1cccc(Cl)c1)CN1CCc3cc4c(cc3C1C2)OCO4 (centres undefined)
Reply text: 230

Inquiry: What about this molecule? CCOc1c(OC)cc(/C=N/Nc2nccs2)c2c1CN1CCc3cc4c(cc3C1C2)OCO4 (centres undefined)
Reply text: 70

Inquiry: What about this molecule? CCCCCCCCCCOc1c(OC)cc(/C=N/NC(N)=S)c2c1CN1CCc3cc4c(cc3C1C2)OCO4 (centres undefined)
Reply text: 30

Inquiry: What about this molecule? COc1cc(/C=N/NC(N)=S)c2c(c1OCc1ccc(Cl)cc1Cl)CN1CCc3cc4c(cc3C1C2)OCO4 (centres undefined)
Reply text: 440

Inquiry: What about this molecule? COc1cc(/C=N/NC(N)=S)c2c(c1OCc1ccccc1F)CN1CCc3cc4c(cc3C1C2)OCO4 (centres undefined)
Reply text: 240

Continuing:
Inquiry: // lookup MIC for CCCCCCCCCCCCOc1c(OC)cc(/C=N/NC(N)=S)c2c1CN1CCc3cc4c(cc3C1C2)OCO4 (centres undefined)
Reply text: 110

----------
# Test system: Escherichia coli
# measurement_protocol: Antibacterial activity against Escherichia coli DH52 after 18 to 24 hrs by CLSI two fold serial dilution method
# Format: functional
attribute_measured: MIC
The reply should read as a number followed by its unit.

// known answers, use as guide
Inquiry: What is its MIC for Escherichia coli? Entry: COc1cc(/C=N/Nc2nccs2)c2c(c1OCc1ccc([N+](=O)[O-])cc1)CN1CCc3cc4c(cc3C1C2)OCO4 (centres undefined)
Reply text: 440 µM

Inquiry: What about this molecule? CCOc1c(OC)cc(/C=N/NC(N)=S)c2c1CN1CCc3cc4c(cc3C1C2)OCO4 (centres undefined)
Reply text: 280 µM

Inquiry: What about this molecule? COc1cc(/C=N/Nc2nccs2)c2c(c1OCc1cccc(Cl)c1)CN1CCc3cc4c(cc3C1C2)OCO4 (centres undefined)
Reply text: 890 µM

Next molecule, MIC to be filled in.
Inquiry: What is its MIC for Escherichia coli? Entry: CCCCOc1c(OC)cc(/C=N/NC(N)=S)c2c1CN1CCc3cc4c(cc3C1C2)OCO4 (centres undefined)
Reply text: 270 µM

----------
I'd be grateful if you could share measured MIC for these entries.
# Test system: Micrococcus luteus
# measurement_protocol: Antibacterial activity against Micrococcus luteus ATCC 4698 after 18 to 24 hrs by CLSI two fold serial dilution method
# Format: functional
Give bare numbers, in µM.

// known answers, use as guide
Inquiry: // lookup MIC for COc1cc(/C=N/NC(N)=S)c2c(c1OCc1ccccc1F)CN1CCc3cc4c(cc3C1C2)OCO4 (stereo not given)
Reply text: 240

Inquiry: What about this compound? COc1cc(/C=N/NC(N)=S)c2c(c1OCC#N)CN1CCc3cc4c(cc3C1C2)OCO4 (stereo not given)
Reply text: 280

Inquiry: What about this compound? CCCCCCCCCCOc1c(OC)cc(/C=N/Nc2nccs2)c2c1CN1CCc3cc4c(cc3C1C2)OCO4 (stereo not given)
Reply text: 220

Inquiry: What about this compound? COc1cc(/C=N/NC(N)=S)c2c(c1OCc1ccccc1)CN1CCc3cc4c(cc3C1C2)OCO4 (stereo not given)
Reply text: 250

Inquiry: What about this compound? COc1cc(/C=N/NC(N)=S)c2c(c1OCc1ccc(Cl)cc1)CN1CCc3cc4c(cc3C1C2)OCO4 (stereo not given)
Reply text: 230

Inquiry: What about this compound? CCCCCCOc1c(OC)cc(/C=N/NC(N)=S)c2c1CN1CCc3cc4c(cc3C1C2)OCO4 (stereo not given)
Reply text: 250

Inquiry: What about this compound? COc1cc(/C=N/Nc2nccs2)c2c(c1OCc1ccccc1Cl)CN1CCc3cc4c(cc3C1C2)OCO4 (stereo not given)
Reply text: 890

Inquiry: What about this compound? COc1cc(/C=N/Nc2nccs2)c2c(c1OCc1ccc(Cl)cc1)CN1CCc3cc4c(cc3C1C2)OCO4 (stereo not given)
Reply text: 220

Below is a list of compounds. For each, state its recorded MIC.
1. COc1cc(/C=N/Nc2nccs2)c2c(c1OCc1ccc(F)cc1)CN1CCc3cc4c(cc3C1C2)OCO4 (stereo not given)
2. COc1cc(/C=N/Nc2nccs2)c2c(c1OCc1ccccc1)CN1CCc3cc4c(cc3C1C2)OCO4 (stereo not given)

Reply text:
60
240

----------
# Test system: Staphylococcus aureus
# measurement_protocol: Antibacterial activity against methicillin-resistant Staphylococcus aureus N315 after 18 to 24 hrs by CLSI two fold serial dilution method
# Type: functional
attribute_measured: MIC (µM)
One number for each entry, in µM.

// known answers, use as guide
Inquiry: // lookup MIC for CCCCCCCCCCOc1c(OC)cc(/C=N/NC(N)=S)c2c1CN1CCc3cc4c(cc3C1C2)OCO4 (centres undefined)
Reply text: 30

Inquiry: What about this compound? C=CCOc1c(OC)cc(/C=N/NC(N)=S)c2c1CN1CCc3cc4c(cc3C1C2)OCO4 (centres undefined)
Reply text: 70

Inquiry: What about this compound? COc1cc(/C=N/NC(N)=S)c2c(c1OCc1ccc(F)cc1)CN1CCc3cc4c(cc3C1C2)OCO4 (centres undefined)
Reply text: 120

Below is a list of compounds. For each, state its recorded MIC.
1. COc1cc(/C=N/NC(N)=S)c2c(c1OCc1ccccc1)CN1CCc3cc4c(cc3C1C2)OCO4 (centres undefined)
2. CCCCCCOc1c(OC)cc(/C=N/NC(N)=S)c2c1CN1CCc3cc4c(cc3C1C2)OCO4 (centres undefined)
3. CCOc1c(OC)cc(/C=N/NC(N)=S)c2c1CN1CCc3cc4c(cc3C1C2)OCO4 (centres undefined)
4. COc1cc(/C=N/NC(N)=S)c2c(c1OCc1ccc([N+](=O)[O-])cc1)CN1CCc3cc4c(cc3C1C2)OCO4 (centres undefined)
5. COc1cc(/C=N/NC(N)=S)c2c(c1OCc1cccc(Cl)c1)CN1CCc3cc4c(cc3C1C2)OCO4 (centres undefined)
6. C#CCOc1c(OC)cc(/C=N/NC(N)=S)c2c1CN1CCc3cc4c(cc3C1C2)OCO4 (centres undefined)

Reply text:
1. 120
2. 130
3. 140
4. 230
5. 120
6. 30

----------
# measurement_protocol: Oral bioavailability in ICR mouse at 10.4 to 83.2 mg/kg after 60 mins by HPLC method
# Assay type: ADME, organism-based
# measurement_context: in vivo
attribute_measured: bioavailability

Inquiry: // lookup bioavailability for COc1ccc2cc3[n+](cc2c1OC)CCc1cc2c(cc1-3)OCO2 [BERBERINE]
Reply text: < 1%

----------
# System: Staphylococcus aureus
# measurement_protocol: Antibacterial activity against methicillin-resistant Staphylococcus aureus N315 after 18 to 24 hrs by CLSI two fold serial dilution method
# Format: functional
I'd be grateful if you could share measured log10 of MIC for these entries.
Hi team, quick reminder: these entries are log10 of MIC (µM).

// known answers, use as guide
Inquiry: What is its log10 of MIC for Staphylococcus aureus? Entry: COc1cc(/C=N/NC(N)=S)c2c(c1OCc1ccccc1F)CN1CCc3cc4c(cc3C1C2)OCO4 (centres undefined)
Reply text: 1.48

Inquiry: What about this compound? CCCCOc1c(OC)cc(/C=N/NC(N)=S)c2c1CN1CCc3cc4c(cc3C1C2)OCO4 (centres undefined)
Reply text: 2.11

Inquiry: What about this compound? COc1cc(/C=N/NC(N)=S)c2c(c1OCc1ccc(Cl)c(Cl)c1)CN1CCc3cc4c(cc3C1C2)OCO4 (centres undefined)
Reply text: 2.34

Inquiry: What about this compound? CCCCCCCCOc1c(OC)cc(/C=N/NC(N)=S)c2c1CN1CCc3cc4c(cc3C1C2)OCO4 (centres undefined)
Reply text: 2.08

Inquiry: What about this compound? COc1cc(/C=N/NC(N)=S)c2c(c1OCCO)CN1CCc3cc4c(cc3C1C2)OCO4 (centres undefined)
Reply text: 2.43

Below is a list of compounds. For each, state its recorded log10 of MIC.
1. COc1cc(/C=N/NC(N)=S)c2c(c1OCc1ccccc1Cl)CN1CCc3cc4c(cc3C1C2)OCO4 (centres undefined)
2. COc1cc(/C=N/NC(N)=S)c2c(c1OCc1ccc(Cl)cc1Cl)CN1CCc3cc4c(cc3C1C2)OCO4 (centres undefined)
3. COc1ccc2cc3[n+](cc2c1OC)CCc1cc2c(cc1-3)OCO2 [BERBERINE]
4. CCn1cc(C(=O)O)c(=O)c2cc(F)c(N3CCNCC3)cc21 [NORFLOXACIN]
5. CCCCCCCCCCCCOc1c(OC)cc(/C=N/NC(N)=S)c2c1CN1CCc3cc4c(cc3C1C2)OCO4 (centres undefined)

Reply text:
1. 2.08
2. 2.04
3. 3.14
4. 1.48
5. 2.04

Below is a list of compounds. For each, state its recorded log10 of MIC.
1. COc1cc(/C=N/NC(N)=S)c2c(c1OCc1ccc(Cl)cc1)CN1CCc3cc4c(cc3C1C2)OCO4 (centres undefined)
2. COc1cc(/C=N/NC(N)=S)c2c(c1OCC#N)CN1CCc3cc4c(cc3C1C2)OCO4 (centres undefined)
3. COc1cc(/C=N/NC(N)=S)c2c(c1O)CN1CCc3cc4c(cc3C1C2)OCO4 (centres undefined)

Reply text:
2.36
2.45
2.18
